- EXPERIMENTAL TARGET: UniProtKB P00742
- Sequence (P00742 41-179 limits assumed): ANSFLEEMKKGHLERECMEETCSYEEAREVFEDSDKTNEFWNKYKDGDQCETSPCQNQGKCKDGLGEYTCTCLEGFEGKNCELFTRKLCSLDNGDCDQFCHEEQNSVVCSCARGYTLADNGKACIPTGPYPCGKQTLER
- Sequence (P00742 235-488 limits assumed): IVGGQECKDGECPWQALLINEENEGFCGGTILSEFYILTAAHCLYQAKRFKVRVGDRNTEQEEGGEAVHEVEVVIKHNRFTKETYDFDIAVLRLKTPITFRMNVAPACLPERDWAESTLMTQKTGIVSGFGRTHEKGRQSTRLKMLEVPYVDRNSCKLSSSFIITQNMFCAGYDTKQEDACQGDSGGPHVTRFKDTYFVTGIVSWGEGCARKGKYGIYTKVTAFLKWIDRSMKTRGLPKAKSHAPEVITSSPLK
- METHOD: Inhibition of human factor 10a using S-2222 chromogenic substrate assessed as hydrolysis by microplate reader
MEASURED METRIC: pIC50
Give only the number. pIC50 is defined as minus log10 of concentration in molar units.

Below are worked cases with known answers.
CN1CCCN(c2ccc(C(=O)Nc3c(O)cc(Cl)cc3C(=O)Nc3ccc(Cl)cn3)cc2)CC1.Cl	8.06
COc1ccc(NC(=O)c2cccc(O[C@@H]3O[C@H](C(=O)O)[C@@H](O)[C@H](O)[C@H]3O)c2NC(=O)c2ccc(N3CCCN(C)CC3)cc2)cc1	7.18
Cc1ccc(NC(=O)c2cccc(O)c2NC(=O)c2ccc(N3CCCN(C)CC3)cc2)cc1.Cl	7.17
CN1CCCN(c2ccc(C(=O)Nc3c(O)cccc3C(=O)Nc3ccc(Cl)cn3)cc2)CC1.Cl	7.80

Okay, now this compound:
Query :: Which pIC50 reading was recorded for the compound COc1ccc(NC(=O)c2cc(Cl)cc(O)c2NC(=O)c2ccc(N3CCCN(C)CC3)cc2)cc1.Cl ?
Result :: 7.17

----------
- EXPERIMENTAL TARGET: UniProt:P00742
- METHOD: Inhibition of human factor 10a using S-2222 chromogenic substrate assessed as hydrolysis at 1.36 uM by microplate reader
MEASURED METRIC: inhibition

Cc1ccc(NC(=O)c2ccccc2NC(=O)c2ccc(N3CCCN(C)CC3)cc2)nc1	73%
CN1CCCN(c2ccc(C(=O)Nc3ccccc3C(=O)Nc3ccc(OC(F)(F)F)cc3)cc2)CC1	32%
Cc1cccc(NC(=O)c2ccccc2NC(=O)c2ccc(N3CCCN(C)CC3)cc2)c1	88%
CN1CCCN(c2ccc(C(=O)Nc3ccccc3C(=O)Nc3ccc(Oc4ccccc4)cc3)cc2)CC1	22%

Query :: # inhibition lookup, item Cc1ccc(NC(=O)c2ccccc2NC(=O)c2ccc(N3CCCN(C)CC3)cc2)cc1
Result :: 94%

Query :: Reported inhibition for CN1CCCN(c2ccc(C(=O)Nc3ccccc3C(=O)Nc3ccccc3Cl)cc2)CC1 : what is it?
Result :: 11%

Query :: Entry CN1CCCN(c2ccc(C(=O)Nc3ccccc3C(=O)Nc3ccc(N(C)C)cc3)cc2)CC1 : reported inhibition = ?
Result :: 24%

Query :: Give its inhibition value. Item: COc1cccc(NC(=O)c2ccccc2NC(=O)c2ccc(N3CCCN(C)CC3)cc2)c1
Result :: 40%
